# assayInfo: Microsomal stability assay, human liver microsomes
# Type: in vitro ADME
# experimentalParameters: pH 7.4, 1 μM compound, 0.5 mg/mL protein, 37° C., read-out: HLM +/− NADPH: Clint (μL/min/mg protein)
parameter: microsomal CLint at 1 μM

Lookup: If you can, please state the reported microsomal CLint at 1 μM value of CC(C)(c1ccc(OCc2csc(NS(C)(=O)=O)n2)cc1)c1cc(Cl)c(OCCCl)c(C#N)c1 [Compound A134] .
Found: 12 to 48 µL/min/mg

Lookup: Request: CC(C)(c1ccc(OCCCl)c(C#N)c1)c1ccc(OCc2ocnc2S(C)(=O)=O)c(C#N)c1 [Compound A63]
Found: 12 to 48 µL/min/mg

Lookup: Request: CC(C)(c1ccc(Nc2ncc(CNS(C)(=O)=O)o2)cc1)c1cc(Cl)c(OCCCl)c(Cl)c1 [Compound A75]
Found: < 12 µL/min/mg

Lookup: Request: CC(C)(c1ccc(OCc2ocnc2C(N)=O)cc1)c1cc(Cl)c(OCCCl)c(Cl)c1 [Compound A45]
Found: < 12 µL/min/mg

###

# microsomal CLint at 1 μM per entry
# assayInfo: Microsomal stability assay, human liver microsomes
# Format: in vitro ADME
# experimentalParameters: pH 7.4, 1 μM compound, 0.5 mg/mL protein, 37° C., read-out: HLM +/− NADPH: Clint (μL/min/mg protein)

Cc1nc(NS(C)(=O)=O)nc(COc2ccc(C(C)(C)c3cc(Cl)c(OCCCl)c(C#N)c3)cc2)c1C [Compound A123]: < 12 µL/min/mg
CC(C)(c1ccc(OCc2nnccc2NS(C)(=O)=O)cc1)c1cc(Cl)c(OCCCl)c(C#N)c1 [Compound A101]: ≥ 48 µL/min/mg

Lookup: If you can, please state the reported microsomal CLint at 1 μM value of CC(C)(c1ccc(OCc2ocnc2S(C)(=O)=O)cc1)c1cc(Cl)c(OCC(Cl)CO)c(Cl)c1 (centres unmarked) [Compound A97] .
Found: 12 to 48 µL/min/mg

Lookup: Request: CC(C)(c1ccc(N2C(=O)N(N)C(C)(C)C2=O)cc1)c1cc(Cl)c(OCCCl)c(Cl)c1 [Compound B6]
Found: 12 to 48 µL/min/mg

Lookup: Request: CSc1nc(C)c(COc2ccc(C(C)(C)c3cc(Cl)c(OCCCl)c(C#N)c3)cc2)o1 [Compound A119]
Found: ≥ 48 µL/min/mg

Lookup: Request: CC(C)(c1ccc(OCc2[nH]cnc2S(C)(=O)=O)cc1)c1cc(Cl)c(OCCCl)c(Cl)c1 [Compound A71]
Found: 12 to 48 µL/min/mg

###

# microsomal CLint at 1 μM per entry
# assayInfo: Microsomal stability assay, mouse liver microsomes
# Assay type: in vitro ADME
# experimentalParameters: mouse, liver microsomes, pH 7.4, mouse liver microsomes, 1 μM compound, 0.5 mg/mL protein, 37° C.; read-out: MLM +30/− NADPH: Clint (μL/min/mg protein)
Counter-ions that a name gives are not always drawn.

CC(C)(c1ccc(NCc2ocnc2S(C)(=O)=O)cc1)c1cc(Cl)c(OCCCl)c(Cl)c1 [Compound A32, Hydrochloride]: ≥ 48 µL/min/mg
CC(C)(c1ccc(OCc2ocnc2S(C)(=O)=O)cc1)c1cc(Cl)c(OCCCCl)c(Cl)c1: < 12 µL/min/mg

API: the following record is the query input.
Lookup: If you can, please state the reported microsomal CLint at 1 μM value of CCS(=O)(=O)Nc1nc(COc2ccc(C(C)(C)c3cc(Cl)c(OCCCl)c(C#N)c3)cc2)co1 .
Found: < 12 µL/min/mg

These measurements were taken from patent US11059795B2.
